- STUDY_TARGET: FGFR3 (SEQ ID NO: 5, amino acids 449-759) (Homo sapiens (Human))
- Sequence (P22607 449-759): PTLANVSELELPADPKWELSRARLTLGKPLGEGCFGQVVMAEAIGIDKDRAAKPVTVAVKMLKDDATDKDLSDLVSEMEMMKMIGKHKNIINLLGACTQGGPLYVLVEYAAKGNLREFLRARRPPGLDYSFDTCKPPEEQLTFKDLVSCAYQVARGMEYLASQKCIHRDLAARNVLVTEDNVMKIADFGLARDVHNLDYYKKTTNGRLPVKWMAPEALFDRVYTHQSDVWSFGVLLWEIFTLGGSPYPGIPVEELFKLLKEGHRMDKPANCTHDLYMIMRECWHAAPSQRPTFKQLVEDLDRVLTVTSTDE
- ASSAY_PROTOCOL: LC/MS FGFR3 kobs assay (covalent protein modification)
- Format: binding
- RECORDED_CONDITIONS: 500 nM FGFR3, 3 μM compound
Label scheme for FGFR3 Enz kobs: lower than 0.003 min⁻¹ is F, 0.003 min⁻¹ and above is T.

Use these answered entries as a reference point.
C=CC(=O)N1CC2CC(C1)N2C(=O)N1CCC(n2cc(-c3cc(OC)c4c(C#N)cnn4c3)cn2)CC1 [Example 4]: F
C=CC(=O)N1CC2(CCN(C(=O)N3CCC(n4cc(-c5cc(OC)c6c(C#N)cnn6c5)cn4)CC3)C2)C1 [Example 8]: T
C=CC(=O)N1CC(C(=O)N2CCC(c3ccc(-c4cc(OC)c5c(C#N)cnn5c4)cc3)CC2)C1 [Example 101]: T

Let's switch to this compound now.
Please indicate if the recorded FGFR3 Enz kobs for C=CC(=O)N1CCC[C@@H](C(=O)N2CCC(n3cc(-c4cc(OC)c5c(C#N)cnn5c4)cn3)CC2)C1 [Example 17] meets or exceeds 0.003 min⁻¹.
F
